The reported measurements were obtained from PubChem BioAssay (NCI).

- Tested on: LOX IMVI melanoma
- protocol.summary: NCI-60 one-dose screen, 48 h (100 = growth as untreated, 0 = no growth, -100 = all killed)
- particulars: 10 µM unless noted
Compounds without any hit were thinned out: in the full panel of roughly 83,000, 20% have a hit.
measured.metric: growth (%)
Numbers only, in %.

{"compound": "O=C1Nc2ccc(F)cc2/C1=C\\c1nc(-c2ccccc2F)n2ccccc12", "growth, %": 61}
{"compound": "C=C1C(=O)O[C@H]2[C@H]1CC/C(COC(=O)NCc1ccc(Cn3c(=O)sn(-c4ccc(OC)cc4)c3=O)cc1)=C\\CC[C@@]1(C)O[C@@H]21", "growth, %": 25}
{"compound": "C/C(=N\\Nc1nc(C)cs1)c1cc2ccccc2o1", "growth, %": 85.8}
{"compound": "CCCCC(=O)Nc1ncc(Cc2ccccc2Cl)s1", "growth, %": 40.2}
{"compound": "COc1ccc(/C=C/C(=O)c2cc3c(N)c(C(=O)Nc4ccccc4C)sc3nc2C)cc1", "growth, %": 18.7}

// each compound listed below needs its growth
1. Cc1nc2ccccc2c(/C=C/c2ccc(C(F)(F)F)cc2)c1C(=O)/C=C/c1ccccc1
2. O=C1/C=C/[C@@H](O)[C@@H]2C[C@@H](O)C[C@H]2/C=C/CCC[C@H](CCOCc2ccccc2)O1
3. CCOC(=O)C(=Cc1cccc(C#N)c1)C(=O)OCC
4. C[Se]C(=O)CC1=C2C=C(F)C=CC2/C(=C\c2ccc(S(C)=O)cc2)C1C (stereo not given)
5. CCNC(=O)Oc1ccc(/C(=C(/C)Cc2ccc(OC)cc2)c2ccc(OCCN3CCCCCC3)cc2)cc1

1. -92.2
2. -59.7
3. -44.1
4. -68.4
5. -22

###

- Tested on: NCI/ADR-RES ovarian
- protocol.summary: NCI-60 one-dose screen, 48 h
- particulars: 10 µM unless noted
Compounds without any hit were thinned out: in the full panel of roughly 83,000, 20% have a hit. Active and inactive are the calls of the source. Rule for the calls: active = growth percent below 10; inactive = the rest.
# valid calls are YES = active, NO = inactive; nothing else

Check out these entries, answers already filled in.
{"compound": "CC1O[C@@H]2C[C@@](O)([C@H]1O)n1c3ccccc3c3c4c(c5c6ccccc6n2c5c31)C(=O)NC4=O (stereo not given in full)", "category": "NO"}
{"compound": "CCOC(=O)c1ccc2c(c1)c1c(C)c3ccncc3c(C)c1n2C", "category": "YES"}
{"compound": "CC/C(Cc1ccccc1)=C(\\c1ccc(OCCN2CCCCCC2)cc1)c1ccc(OC(=O)NCc2ccccc2)cc1", "category": "NO"}
{"compound": "CCN=C1C=CC(=C(c2ccc(N(C)C)cc2)c2ccc(N(C)C)cc2)c2ccccc21", "category": "NO"}
{"compound": "CCCCSCC(=O)c1ccccc1", "category": "NO"}
{"compound": "CC(=O)c1c(Nc2ccc(F)c(F)c2F)[nH]c2c(F)cc(F)cc2c1=O", "category": "YES"}

Recorded call for Nc1ccc([N+](=O)[O-])cc1N=C/C=C/c1ccccc1 ?
NO

For O=C(N/N=C/c1ccc([N+](=O)[O-])cc1)c1ccc2nc(-c3ccc(Cl)cc3)[nH]c2c1 , which call appears in the assay record?
NO

Would you mind telling me which call this test gave CCOC(=O)C/C(=N\Nc1cc(=O)[nH]c2ccc(Cl)cc12)C(=O)OCC ?
NO

What did this assay record as the result for Oc1c(Cl)cc(Cl)c2ccc(Cn3cc(-c4cccc(C(F)(F)F)c4)nn3)nc12 ?
NO

Just curious, what result did CC(C)CSc1oc(-c2ccccc2)nc1S(=O)(=O)c1ccccc1 get here?
NO

State the result this test recorded for CC1(C)CC2=C3C=C[C@@H]4[C@@]5(C)CC[C@H](O)C(C)(C)[C@@H]5CC[C@@]4(C)[C@]3(C)CC[C@@]2(C(=O)O)CC1=O .
NO

Could you check what this test reported for CCOC(=O)C1CCN(c2ccc(N3C[C@@H](CNCc4ccc(C(=N)N)cc4)OC3=O)cc2)CC1 ?
NO

Please share the test call associated with Cc1ccc(S(=O)(=O)n2cc(C3C(Cl)C(=O)N3c3ccc(N4CCOCC4=O)cc3)c3ccccc32)cc1 (stereo not given) .
NO

How was COc1cc2oc(-c3cccc(NC(=O)c4ccc5c(c4)OCO5)c3)cc(=O)c2c(OC)c1OC classified in this test?
NO

Please let me know the test result on file for CCCCCCNc1nc(NCCCCCC)c2[nH]c(NCCCCCC)nc2n1 .
NO

Recorded test outcome, item O=C(CN1C(=O)/C(=C/c2ccco2)SC1=S)NCCc1c[nH]c2ccc(F)cc12
NO

Would you mind telling me which call this test gave Cn1cccc1/C=C1\C(=O)Nc2ccccc21 ?
NO

Hello, I am checking results. What call was entered for Cc1c(Cl)cccc1C(=O)Nc1nc2c(s1)CN(C(=O)Nc1cccc(C(F)(F)F)c1)CC2 ?
YES

For COc1cccc(/C=C2\COc3ccc(O)cc3C2=O)c1 , which call appears in the assay record?
NO
